molecular target: Tubulin (Sus scrofa, UniProt P02554+P02550); test: Inhibition of porcine brain tubulin polymerization assessed as reduction in GTP-induced microtubule assembly after 60 mins by OD340 method
property name: IC50 (µM)
Write the value in µM as a bare number.

Need IC50, item COCC(C)(C)n1cc(C(=O)C(=O)Nc2ccc(OC)nc2)c2ccccc21 7.8

State the recorded IC50 for this entry: COc1ccc(NC(=O)C(=O)c2cn(CC3CCCO3)c3ccccc23)cn1 (stereo unspecified) 8.3

Sample COCCn1cc(C(=O)C(=O)Nc2ccc(OC)nc2)c2cccnc21 — what was its IC50? 2.6

Entry under review: COc1ccc(NC(=O)C(=O)c2cn(C(C)C)c3ccccc23)cn1 . Reported IC50? 14.9

Recorded IC50 of COCC(C)n1cc(C(=O)C(=O)Nc2ccc(OC)nc2)c2ccccc21 (stereo unspecified) , please. 3.9

I would be grateful if you could share the reported IC50 for COCCn1cc(C(=O)C(=O)Nc2ccc(OC(C)C)nc2)c2ccccc21 . 6.6

====

assay: Apparent permeability from apical to basolateral side in human Caco2 cells at 10 uM at pH 7.4 after 60 mins by mass spectrometry; settings: Caco-2, pH 7.4
property name: Papp A→B at 1 h, 10 µM
Give the value; after it, write the unit.

>>> value_observed("COc1ccc(NC(=O)C(=O)c2cn(CC3CCCO3)c3ccccc23)cn1 (stereo not given)")
"35 ×10⁻⁶ cm/s"

Reported Papp A→B at 1 h, 10 µM for COc1ncc(NC(=O)C(=O)c2cn(C(C)C)c3ccccc23)cn1 : what is it? 39.8 ×10⁻⁶ cm/s

Please give the measured Papp A→B at 1 h, 10 µM for this molecule: COCC(C)n1cc(C(=O)C(=O)Nc2ccc(OC)nc2)c2ccccc21 (stereo not given) 33.6 ×10⁻⁶ cm/s

# query: Papp A→B at 1 h, 10 µM of entry COCCn1cc(C(=O)C(=O)Nc2ccc(OC(C)C)nc2)c2ccccc21 15.2 ×10⁻⁶ cm/s

Bench note: what Papp A→B at 1 h, 10 µM did COc1ccc(NC(=O)C(=O)c2cn(C(C)C)c3ccccc23)cn1 show? 19.8 ×10⁻⁶ cm/s

====

target: Tubulin (Sus scrofa) (UniProt P02554+P02550); experiment: Displacement of [3H]-vinblastine from biotinylated porcine tubulin after 15 mins by competitive binding assay; assay type: protein assay
Calls of active or inactive are those of the source. No cut-off for these calls is given here.
property name: Activity

>>> value_observed("CC(=O)O[C@@]12CO[C@@H]1C[C@H](O)[C@@]1(C)C(=O)[C@H](O)C3=C(C)[C@@H](OC(=O)[C@H](O)[C@@H](NC(=O)OC(C)(C)C)c4ccccc4)C[C@@](O)([C@@H](OC(=O)c4ccccc4)[C@H]21)C3(C)C")
"Active"
>>> value_observed("CC[C@]1(O)C[C@H]2CN(CCc3c([nH]c4ccccc34)[C@@](C(=O)OC)(c3cc4c(cc3OC)N(C=O)[C@H]3[C@@](O)(C(=O)OC)[C@H](OC(C)=O)[C@]5(CC)C=CCN6CC[C@]43[C@@H]65)C2)C1")
"Active"

====

experiment: Solubility in 2% DMSO containing 50 mM potassium phosphate buffer solution at pH 7.4 by dynamic light scattering method; conditions: 50 mM potassium phosphate buffer with 2% DMSO
property name: solubility kinetic

>>> value_observed("COCCn1cc(C(=O)C(=O)Nc2ccc(OC(C)C)nc2)c2ccccc21")
"10 µM"

Now for another entry.
Recorded solubility kinetic for CCn1cc(C(=O)C(=O)Nc2ccc(OC)nc2)c2ccccc21 , please? 10 µM

meta.source: ChEMBL document CHEMBL3745658
